- ASSAY DETAILS: self-splicing fitness, log relative to wild type (ln ratio); higher = more splicing; Tetrahymena group I intron in knt gene, E. coli kanamycin selection, DiMSum; sequences stand for … in CUCUCU…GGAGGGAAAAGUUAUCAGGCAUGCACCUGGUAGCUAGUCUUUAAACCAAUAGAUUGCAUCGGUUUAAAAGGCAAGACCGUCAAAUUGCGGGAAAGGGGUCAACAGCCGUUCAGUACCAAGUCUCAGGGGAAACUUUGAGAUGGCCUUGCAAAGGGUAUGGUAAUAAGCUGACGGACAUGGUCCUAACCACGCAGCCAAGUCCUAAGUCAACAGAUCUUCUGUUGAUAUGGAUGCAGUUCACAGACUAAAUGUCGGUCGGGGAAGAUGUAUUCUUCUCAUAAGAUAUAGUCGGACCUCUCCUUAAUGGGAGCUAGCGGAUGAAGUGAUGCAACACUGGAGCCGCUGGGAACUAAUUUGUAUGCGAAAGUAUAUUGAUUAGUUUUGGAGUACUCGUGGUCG;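 further: selection with 25 µg/mL kanamycin versus none on LB agar overnight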
- EXPERIMENTAL PARAMETERS: 37 °C
Classification field: true = self-splicing fitness (ln) at or over -1; false = self-splicing fitness (ln) under -1.

Input: Does `AAUUAGCAAUAUUACGCCCU` have a reported self-splicing fitness (ln) of at least -1?
Output: true

Input: Also `UGGUAGCAAUAUUACGCCCA` ?
Output: false

Input: What about this sequence? `UCUCAGCAAUAUUACGCGAC`
Output: false

Input: Repeat with `UGCCAGCAAUAUUACGGAUG`
Output: true

Input: Another sequence to look at: `AUGUAGCAAUAUUACGCAGG`
Output: false

Input: What do you have for `CUAGAGCAAUAUUACGCAGA` ?
Output: false

Input: Cool, now `CAACAGCAAUAUUACGGUCU`
Output: false

Input: Another: `UAUGAGCAAUAUUACGACAG`
Output: false

Input: Also `AAGCAGCAAUAUUACGACGU` ?
Output: true

Input: And then `CGCUAGCAAUAUUACGUCAG` , what is it?
Output: true

Input: // repeat for `GCCUAGCAAUAUUACGUGUC` and report
Output: true

Input: Now this one: `CUUAAGCAAUAUUACGAAGA`
Output: false

Input: What would you report for `ACGUAGCAAUAUUACGCUCG` ?
Output: true

Input: Item: `GCGUAGCAAUAUUACGUUUG`
Output: false

Input: Now try `CACGAGCAAUAUUACGGCAG` .
Output: true

Input: Likewise for `ACUCAGCAAUAUUACGCUUU` ?
Output: true

Input: Same again, this time with `UUGAAGCAAUAUUACGGCAA`
Output: true

Input: Try this sequence next: `GCAGAGCAAUAUUACGUUCU`
Output: false

Input: Consider next the sequence `CUCCAGCAAUAUUACGGUCU` in the same way.
Output: false

Input: Next record, please: `UCUGAGCAAUAUUACGGUGA`
Output: true

Input: Also `UAUGAGCAAUAUUACGCCAA` ?
Output: false

Input: Let us now turn to `UAGUAGCAAUAUUACGUAAU`
Output: false

Input: Now the sequence `UGUUAGCAAUAUUACGCAAU`
Output: false

Input: Subsequent entry: `CCCCAGCAAUAUUACGGCCU`
Output: false

Input: // same read-out, input: `AUAUAGCAAUAUUACGCCUU`
Output: true

Input: Now the sequence `UGAGAGCAAUAUUACGGACG`
Output: true

Input: And for `CGUUAGCAAUAUUACGUCCG` ?
Output: true

Input: Same thing, different sequence: `GUGUAGCAAUAUUACGCACG`
Output: false

Input: Repeat for the following sequence: `CAACAGCAAUAUUACGAAGU`
Output: false

Input: Please answer likewise for `UCCUAGCAAUAUUACGGGAC`
Output: false

Input: Query `AAGAAGCAAUAUUACGACAC` next
Output: true

Input: Cool, now `ACUUAGCAAUAUUACGUACG`
Output: false

Input: Field entry: `UCGUAGCAAUAUUACGCCUA`
Output: true

Input: And then `GCGCAGCAAUAUUACGUAUA` , what is it?
Output: false
